Test system: SK-MEL-5 melanoma
experiment: NCI-60 one-dose screen, 48 h
condition parameters: 10 µM unless noted
About 83,000 compounds went through this panel and 20% of them were active in at least one assay; those are over-represented in the sample as a whole. Calls of active or inactive are those of the source. Rule for the calls: active = growth percent below 10; inactive = the rest.
Outcomes: active, inactive

[
  {
    "compound": "O=CC1(c2ccccc2)CCN(Cc2ccccc2)CC1",
    "classification": "inactive"
  },
  {
    "compound": "C[C@]12CC[C@H]3[C@@H](CC=C4c5nc(-c6ccc(Br)cc6)sc5CC[C@@]43C)[C@@H]1CC[C@@H]2O",
    "classification": "inactive"
  },
  {
    "compound": "CCCC[C@H]1C(=O)O[C@H](C)[C@H](NC(=O)c2cccc(NC=O)c2O)C(=O)O[C@@H](C)[C@@H]1OC(=O)CC(C)C",
    "classification": "active"
  },
  {
    "compound": "Cc1nc2ccccc2c(=O)n1-c1ccccc1F",
    "classification": "inactive"
  },
  {
    "compound": "COc1cc(C=C2C(=O)NC(=O)NC2=O)ccc1O",
    "classification": "inactive"
  },
  {
    "compound": "CCOC(=O)c1ccccc1C(=O)OCC",
    "classification": "inactive"
  },
  {
    "compound": "CC(Oc1ccc(-c2ccccc2)cc1)C(=O)O (stereo not drawn)",
    "classification": "inactive"
  },
  {
    "compound": "CNC(=O)Oc1ccc(Cl)cc1SSc1cc(Cl)ccc1OC(=O)NC",
    "classification": "inactive"
  }
]

The origin of these recorded values is PubChem BioAssay (NCI).
